Conditions: in n-propanol, 323.15 K
measured_endpoint: solubility (mole fraction)

- CC(C)(C)c1cc(CCC(=O)NCCCCCCNC(=O)CCc2cc(C(C)(C)C)c(O)c(C(C)(C)C)c2)cc(C(C)(C)C)c1O: 0.0254

###

Conditions: in methanol, 323.15 K
measured_endpoint: solubility (mole fraction)

* CC(C)(C)c1cc(CCC(=O)NCCCCCCNC(=O)CCc2cc(C(C)(C)C)c(O)c(C(C)(C)C)c2)cc(C(C)(C)C)c1O | 0.012

###

Details: in methanol, 318.15 K
measured_endpoint: solubility (mole fraction)

• CC(C)(C)c1cc(CCC(=O)NCCCCCCNC(=O)CCc2cc(C(C)(C)C)c(O)c(C(C)(C)C)c2)cc(C(C)(C)C)c1O = 0.00874
